tested on: SF-539; assay: NCI tumour cell line growth inhibition, 48 h
The source made the active and inactive calls. Cut-off read from the data, not from the text of the source: active = GI50 up to about 1.1 µM and inactive = higher.
Choose the fitting class; nothing outside active, inactive is accepted.

Query :: I'd appreciate the recorded outcome for CC1(C)OC(=O)C(=C2CCC(C(=O)Nc3cccc(C(F)(F)F)c3)N2)C(=O)O1 (centres undefined) from this test.
Result :: inactive

Query :: Follow-up entry: O=C1/C(=C\c2cccc(Oc3ccccc3)c2)S(=O)(=O)C(c2ccccc2)N1c1cccc(Cl)c1 (centres undefined)
Result :: inactive

Query :: Follow-up entry: CC[C@H]1C=CCC[C@@]2(C[C@@H]3CC[C@@H]4[C@H](C(=O)OCCCCCCCCCCCCCCCC(=O)N(CCCN)C[C@@H](O)CCN)[C@]5(CCC[C@@H](C)O5)NC(=[N+]34)N2)O1
Result :: active

Query :: Follow-up entry: CCCCCCCCCCCC(=O)OCC1OC(n2cc(F)c(=O)[nH]c2=O)C(N)C(OC(=O)CCCCCCCCCCC)C1O (centres undefined)
Result :: inactive

Query :: Follow-up entry: CCOC(=O)/C(C)=C\[C@@]1(C)O[C@@H](C)[C@@](C)(OC(C)=O)[C@@H]1OC(C)=O
Result :: inactive

Query :: Follow-up entry: C[C@@]12CCC(=O)c3coc(c31)C(=O)c1cc3c(cc12)C(=O)C=CC3=O [HELENAQUINONE]
Result :: inactive

Query :: Follow-up entry: COC(=O)C1(C)CCC(c2ccc(C)cc2)=C(CC(=O)O)C1 (centres undefined)
Result :: inactive

Query :: Follow-up entry: COC(=O)c1ccccc1/C=C1/Cc2cccc(C)c2C1=O
Result :: inactive

Query :: Follow-up entry: CCOC(=O)/C(Br)=C1\OC(=O)c2ccccc2-c2ccccc21
Result :: inactive

Query :: Follow-up entry: N=C(N)NS(=O)(=O)c1ccc(NC(=O)c2ccc3nc4ccccc4c(O)c3c2)cc1
Result :: inactive

Query :: Follow-up entry: O=C1CCCc2cc3c(cc21)CCC3C(=O)O (centres undefined)
Result :: inactive

Query :: Follow-up entry: O=[N+]([O-])c1ccc(N2C[N+](c3ccccc3)=NC(c3ccccc3)=N2)cc1
Result :: inactive

Query :: Follow-up entry: Cc1n[nH]c(=S)n(C)c1=S
Result :: inactive

Query :: Follow-up entry: c1csc(-c2cc(-c3ccsc3)cs2)c1
Result :: inactive

Query :: Follow-up entry: CCOc1ccc2c(c1)[n+]([O-])c(-c1ccc(Cl)cc1)c(N)[n+]2[O-]
Result :: inactive

Query :: Follow-up entry: COC(=O)C(C(=O)c1ccccc1)C(C(=O)C(=O)Nc1ccc(OC)cc1OC)C(=O)C(=O)c1ccc(C)cc1 (centres undefined)
Result :: inactive

Query :: Follow-up entry: O=C1CC(c2cccc([N+](=O)[O-])c2)C2(C(=O)NC(=O)NC2=O)C(c2cccc([N+](=O)[O-])c2)C1 (centres undefined)
Result :: inactive

Query :: Follow-up entry: COC(c1ccc(C(C)(C)C)cc1)(c1ccc(C(C)(C)C)cc1)c1ccc(C(C)(C)C)cc1
Result :: inactive

Query :: Follow-up entry: O=C(CCc1nnc(S)[nH]1)NC12CC3CC(CC(C3)C1)C2
Result :: inactive
